Entries and their IC50 values follow.
target: human bradykinin B2 receptor (hB2R) (Homo sapiens, UniProt P30411); experiment: human bradykinin B2 receptor calcium mobilization (hB2R-CaM) assay; settings: antagonism of bradykinin (EC80) induced calcium mobilization, B2 Bradykinin Receptor Stable Cell Line HTS041C, 25 min pre-incubation; read-out: IC50-value towards human bradykinin B2 receptor (hB2R)

Here's what some known entries look like.
{"COMPOUND": "Cc1cc(-n2cc(F)cn2)c2cccc(OCc3c(Cl)cc(F)cc3[C@H](C)N3CC(=O)N(C(C)C)C3=O)c2n1", "IC50": "11 to 100 nM"}
{"COMPOUND": "Cc1cc(-c2ncnn2C)c2cccc(OCc3c(Cl)cc(F)cc3[C@H](C)N3C[C@H](C)NC(=O)C3=O)c2n1", "IC50": "≤ 10 nM"}
{"COMPOUND": "Cc1cc(-n2cc(F)cn2)c2cccc(OCc3c(Cl)cc(F)cc3[C@H](C)N3CCN(C)CC3=O)c2n1", "IC50": "11 to 100 nM"}
{"COMPOUND": "Cc1cc(-n2cc(F)cn2)c2cccc(OCc3c(Cl)cc(F)cc3[C@H](C)N3C[C@H](C)OCC3=O)c2n1", "IC50": "11 to 100 nM"}
{"COMPOUND": "Cc1cc(-n2cc(F)cn2)c2cccc(OCc3c(Cl)cc(F)cc3[C@H](C)N3CC(=O)N(CC(=O)O)C3=O)c2n1", "IC50": "11 to 100 nM"}
{"COMPOUND": "CCC1CCC(=O)N([C@@H](C)c2cc(F)cc(Cl)c2COc2cccc3c(-c4ncnn4C)cc(C)nc23)C1 (some centres unmarked)", "IC50": "≤ 10 nM"}

Give the reported value of IC50 for this record: Cc1cc(-n2cc(F)cn2)c2cccc(OCc3c(Cl)cc(F)cc3[C@H](C)N3CC(=O)N(CC(=O)N(C)C)C3=O)c2n1 11 to 100 nM

Give the reported value of IC50 for this record: Cc1cc(-n2cc(F)cn2)c2cccc(OCc3c(Cl)cc(F)cc3[C@H](C)N3CCN[C@@H](C)C3=O)c2n1 ≤ 10 nM

Give the reported value of IC50 for this record: CCN1C(=O)CN([C@@H](C)c2cc(F)cc(Cl)c2COc2cccc3c(-n4cc(F)cn4)cc(C)nc23)C1=O 11 to 100 nM

Give the reported value of IC50 for this record: Cc1cc(-n2cc(F)cn2)c2cccc(OCc3c(Cl)cc(F)cc3[C@H](C)N3CC(=O)N(CCN)C3=O)c2n1 11 to 100 nM

Give the reported value of IC50 for this record: Cc1cc(-c2ncnn2C)c2cccc(OCc3c(Cl)cc(F)cc3[C@H](C)N3C(=O)N(C4CC4)C(=O)C3C)c2n1 (single isomer, unassigned) [compound 55] ≤ 10 nM

----------
Entries and their IC50 values follow.
Target: UniProtKB P30411
Experiment: human bradykinin B2 receptor calcium mobilization (hB2R-CaM) assay
Conditions: antagonism of bradykinin (EC80) induced calcium mobilization, B2 Bradykinin Receptor Stable Cell Line HTS041C, 25 min pre-incubation; read-out: IC50-value towards human bradykinin B2 receptor (hB2R)
Source text: The following cell-based human bradykinin B2 receptor calcium mobilization (hB2R-CaM) assay was used to determine the antagonistic activity of compounds selected from the example compounds Nos. 1 to 107 towards human bradykinin B2 receptor (hB2R). The assay is defined herein as a standard in vitro B2 receptor activity assay, which can be used to determine IC50 values of the compounds according to the present invention, e. g. the compounds shown in Examples 1-13. […]

Here's what some known entries look like.
{"COMPOUND": "Cc1cc(-n2cc(F)cn2)c2cccc(OCc3c(Cl)cc(F)cc3[C@H](C)N3CCC[C@@H](O)C3=O)c2n1", "ASSAYED TARGET": "UniProtKB P30411", "IC50": "11 to 100 nM"}
{"COMPOUND": "Cc1cc(-n2cc(F)cn2)c2cccc(OCc3c(Cl)cc(F)cc3[C@H](C)N3CCN(C(C)C)CC3=O)c2n1", "ASSAYED TARGET": "UniProtKB P30411", "IC50": "≤ 10 nM"}

Next item in the queue.
Give the reported value of IC50 for this record: Cc1cc(-n2cc(F)cn2)c2cccc(OCc3c(Cl)cc(F)cc3[C@H](C)N3CC(=O)N(C)[C@H](C)C3=O)c2n1 11 to 100 nM

----------
Target: human bradykinin B2 receptor (hB2R) (Homo sapiens)
Sequence (P30411 1-391): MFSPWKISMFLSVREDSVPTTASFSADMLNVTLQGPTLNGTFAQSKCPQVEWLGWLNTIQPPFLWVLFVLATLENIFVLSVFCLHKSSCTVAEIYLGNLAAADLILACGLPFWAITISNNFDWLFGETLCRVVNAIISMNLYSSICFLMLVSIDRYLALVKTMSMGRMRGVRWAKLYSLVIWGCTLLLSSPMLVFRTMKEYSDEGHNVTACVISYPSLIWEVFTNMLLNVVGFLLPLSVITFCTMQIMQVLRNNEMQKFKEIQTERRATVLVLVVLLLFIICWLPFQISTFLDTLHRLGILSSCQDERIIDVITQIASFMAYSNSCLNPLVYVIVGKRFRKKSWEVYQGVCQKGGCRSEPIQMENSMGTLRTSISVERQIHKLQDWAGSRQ
Assay: human bradykinin B2 receptor calcium mobilization (hB2R-CaM) assay
Conditions: antagonism of bradykinin (EC80) induced calcium mobilization, B2 Bradykinin Receptor Stable Cell Line HTS041C, 25 min pre-incubation; read-out: IC50-value towards human bradykinin B2 receptor (hB2R)
Entries and their IC50 values follow.

{"COMPOUND": "Cc1cc(-c2ncnn2C)c2cccc(OCc3c(Cl)cc(F)cc3[C@H](C)N3CCCC3=O)c2n1 [compound 27]", "ASSAYED TARGET": "human bradykinin B2 receptor (hB2R) (Homo sapiens)", "IC50": "≤ 10 nM"}
{"COMPOUND": "Cc1cc(-n2cc(F)cn2)c2cccc(OCc3c(Cl)cc(F)cc3[C@H](C)N3CCC(C)C3=O)c2n1 (single isomer, unassigned) [compound 58]", "ASSAYED TARGET": "human bradykinin B2 receptor (hB2R) (Homo sapiens)", "IC50": "11 to 100 nM"}
{"COMPOUND": "Cc1cc(-n2cc(F)cn2)c2cccc(OCc3c(Cl)cc(F)cc3[C@H](C)N3CCNC(=O)C3=O)c2n1 [compound 50]", "ASSAYED TARGET": "human bradykinin B2 receptor (hB2R) (Homo sapiens)", "IC50": "≤ 10 nM"}
{"COMPOUND": "Cc1cc(-n2cc(F)cn2)c2cccc(OCc3c(Cl)cc(F)cc3[C@H](C)N3CCOCC3=O)c2n1 [compound 18]", "ASSAYED TARGET": "human bradykinin B2 receptor (hB2R) (Homo sapiens)", "IC50": "11 to 100 nM"}

Give the reported value of IC50 for this record: CCN1CCN([C@@H](C)c2cc(F)cc(Cl)c2COc2cccc3c(-n4cc(F)cn4)cc(C)nc23)C(=O)C1 [compound 81] ≤ 10 nM

----------
biological target: UniProt:P30411; assay: human bradykinin B2 receptor calcium mobilization (hB2R-CaM) assay; conditions: antagonism of bradykinin (EC80) induced calcium mobilization, B2 Bradykinin Receptor Stable Cell Line HTS041C, 25 min pre-incubation; read-out: IC50-value towards human bradykinin B2 receptor (hB2R)
OUTCOME MEASURE: IC50

Here's what some known entries look like.
{"MOLECULE": "Cc1cc(-c2ncnn2C)c2cccc(OCc3c(Cl)cc(F)cc3[C@H](C)N3CC(=O)N(C)[C@H](C)C3=O)c2n1", "OUTCOME MEASURE": "IC50", "MEAS VALUE": "≤ 0.01 µM"}
{"MOLECULE": "Cc1cc(-n2cc(F)cn2)c2cccc(OCc3c(Cl)cc(F)cc3[C@H](C)N3C[C@@H](C)OCC3=O)c2n1", "OUTCOME MEASURE": "IC50", "MEAS VALUE": "0.011 to 0.1 µM"}
{"MOLECULE": "Cc1cc(-c2ncnn2C)c2cccc(OCc3c(Cl)cc(F)cc3[C@H](C)N3CC[C@H](O)C3=O)c2n1", "OUTCOME MEASURE": "IC50", "MEAS VALUE": "≤ 0.01 µM"}

Give the reported value of IC50 for this record: Cc1cc(-n2cc(F)cn2)c2cccc(OCc3c(Cl)cc(F)cc3[C@H](C)N3C[C@H](O)CCC3=O)c2n1 ≤ 0.01 µM

Give the reported value of IC50 for this record: Cc1cc(-n2cc(F)cn2)c2cccc(OCc3c(Cl)cc(F)cc3[C@H](C)N3CCN(C(=O)OC(C)(C)C)[C@@H](C)C3=O)c2n1 0.101 to 0.5 µM

Give the reported value of IC50 for this record: Cc1cc(-n2cc(F)cn2)c2cccc(OCc3c(Cl)cc(F)cc3[C@H](C)N3CC(=O)NC3=O)c2n1 0.011 to 0.1 µM

Give the reported value of IC50 for this record: Cc1cc(-c2ncnn2C)c2cccc(OCc3c(Cl)cc(F)cc3[C@H](C)N3CC[C@@H](F)C3=O)c2n1 ≤ 0.01 µM

Give the reported value of IC50 for this record: Cc1cc(-c2ncnn2C)c2cccc(OCc3c(Cl)cc(F)cc3[C@H](C)N3C[C@H](O)CCC3=O)c2n1 0.011 to 0.1 µM

Give the reported value of IC50 for this record: Cc1cc(-n2cc(F)cn2)c2cccc(OCc3c(Cl)cc(F)cc3[C@H](C)N3CCN[C@H](C)C3=O)c2n1 0.011 to 0.1 µM

Give the reported value of IC50 for this record: Cc1cc(-c2ncnn2C)c2cccc(OCc3c(Cl)cc(F)cc3[C@H](C)N3CC[C@H](F)C3=O)c2n1 ≤ 0.01 µM

Source of measurements: patent US12312330B2
